System: U251 CNS
Assay Name: NCI tumour cell line growth inhibition, 48 h
// reported TGI per item
Answer format: numeric, µM implied, no suffix.

# Smiles Notation, Reported Endpoint, Recorded Number
records = [
    ("CCCCNC(=O)Oc1ccc(/C(=C(\\C)c2ccc(OC)cc2)c2ccc(OCCN3CCCCC3)cc2)cc1", "TGI", 5.99),
]

As a next step, examine the molecule that follows.
The molecule identified as CCCCCCCC(=O)Nc1nc2[nH]c(CN3CCN(Cc4cccc(I)c4)CC3)c(CN3CCN(Cc4cccc(I)c4)CC3)c2c(=O)[nH]1 registered its TGI at 1.8

* * *

System: SK-MEL-5 melanoma
Assay Name: NCI tumour cell line growth inhibition, 48 h; in the data active = GI50 below about 0.43 µM; inactive = the rest
Hello, when you answer, please use one of the following outcomes: class 1 (active), class 0 (inactive)

Lookup: Which outcome was entered for the molecule Cc1cc(C)c([I+]c2c(C)cc(C)cc2C)c(C)c1 in this test?
Found: class 1

* * *

Test system: SK-MEL-5 melanoma
Assay Name: NCI tumour cell line growth inhibition, 48 h
Reported Endpoint: GI50

# Molecule, Reported Endpoint, Result
data = [
    ("NC(=O)c1ccc(I)c([N+](=O)[O-])c1", "GI50", "> 100 µM"),
    ("COc1cc(/C=C2\\C(=O)Nc3ccc(Cl)cc32)cc(OC)c1OC", "GI50", "12.7 µM"),
]

The molecule identified as C#Cc1cccc(Nc2nc(C)nc3cc(NC(=O)CCl)ccc23)c1 registered its GI50 at 3.56 µM

The molecule identified as N#C[S-].[Ce+3].c1ccc(-c2ccccn2)nc1.c1ccc(-c2ccccn2)nc1.c1ccc(-c2ccccn2)nc1 registered its GI50 at 3.78 µM

The molecule identified as O=C(N/N=C\c1ccc(N(CCCl)CCCl)cc1)c1cccnc1 registered its GI50 at 36.3 µM

The molecule identified as CC1(C)CC[C@]2(C(=O)NCCNCCN)CC[C@]3(C)C(=CC[C@@H]4[C@@]5(C)CCC(=O)C(C)(C)[C@@H]5CC[C@]43C)[C@@H]2C1 registered its GI50 at 1.8 µM

The molecule identified as CO[C@H]1/C=C/O[C@@]2(C)Oc3c(C)c(O)c4c(O)c(c(/C=N/N5C(C)CN(Cc6ccc(C#N)cc6)CC5C)c(O)c4c3C2=O)NC(=O)/C(C)=C\C=C\[C@H](C)[C@H](O)[C@@H](C)[C@@H](O)[C@@H](C)[C@H](OC(C)=O)[C@@H]1C (stereo partly drawn) registered its GI50 at 5.91 µM

The molecule identified as COc1cccc(C2SC(C)C(=O)N2NC(=O)C(O)c2ccccc2)c1 (stereo not drawn) registered its GI50 at > 100 µM

* * *

System: SF-268 CNS
Assay Name: NCI tumour cell line growth inhibition, 48 h
Reported Endpoint: GI50

The compound identified as O=C(Nc1ccc(Cl)cc1)c1cc(NCc2cc(O)ccc2O)ccc1O registered its GI50 at 3.04 µM

The compound identified as NC(=O)c1ccc(I)c([N+](=O)[O-])c1 registered its GI50 at > 100 µM

The compound identified as N[C@@H](Cc1c[nH]c2ccccc12)C(=O)NC1CCN(Cc2c[nH]c3ccc(Cl)cc23)CC1 registered its GI50 at 7.74 µM

The compound identified as FC(F)(F)c1cccc(Oc2ccc(Nc3ncnc4ccc(OCCCN5CCOCC5)cc34)cc2Cl)c1 registered its GI50 at 2.06 µM

The compound identified as COc1ccc(-c2c(NC(=O)Nc3ccc(Cl)c(C(F)(F)F)c3)cnn2-c2ccc(S(N)(=O)=O)cc2)cc1 registered its GI50 at 3.34 µM

The compound identified as N#Cc1ccc2[nH]cc(Cc3c[nH]c4ccc(C#N)cc34)c2c1 registered its GI50 at 11.5 µM

The compound identified as C[C@]1(c2nc3c(C(N)=O)cccc3[nH]2)CCCN1 registered its GI50 at > 100 µM

The compound identified as O=C1/C(=C/c2ccc(Cl)cc2)N=C(c2ccccc2)N1c1cc(C(F)(F)F)ccc1Cl registered its GI50 at 28.8 µM
